Every entry's value here was drawn from BigSolDB 2.1.

details: in isobutanol, 305.75 K

[
  {
    "substance smiles": "Cc1ccc([N+](=O)[O-])c(C(=O)O)c1",
    "solubility (mole fraction)": 0.153
  }
]

###

conditions: in isobutanol, 317.55 K

[
  {
    "substance smiles": "Cc1ccc([N+](=O)[O-])c(C(=O)O)c1",
    "solubility (mole fraction)": 0.193
  }
]

###

details: in isobutanol, 293.75 K
measurement name: solubility (mole fraction)

[
  {
    "substance smiles": "Cc1ccc([N+](=O)[O-])c(C(=O)O)c1",
    "test result": 0.113
  }
]

###

conditions: in n-butanol, 318.35 K

[
  {
    "substance smiles": "Cc1cc(C(=O)O)ccc1[N+](=O)[O-]",
    "solubility (mole fraction)": 0.0201
  }
]

###

details: in sec-butanol, 319.85 K

[
  {
    "substance smiles": "Cc1cccc(C(=O)O)c1[N+](=O)[O-]",
    "solubility (mole fraction)": 0.0447
  }
]

###

conditions: in tert-butanol, 332.05 K

[
  {
    "substance smiles": "Cc1ccc([N+](=O)[O-])c(C(=O)O)c1",
    "solubility (mole fraction)": 0.418
  }
]

###

conditions: in tert-butanol, 336.35 K
measurement name: solubility (mole fraction)

[
  {
    "substance smiles": "Cc1cc(C(=O)O)ccc1[N+](=O)[O-]",
    "test result": 0.0703
  }
]

###

conditions: in tert-butanol, 306.25 K

[
  {
    "substance smiles": "Cc1cccc(C(=O)O)c1[N+](=O)[O-]",
    "solubility (mole fraction)": 0.0366
  }
]

###

details: in n-butanol, 309.55 K

[
  {
    "substance smiles": "Cc1cc(C(=O)O)ccc1[N+](=O)[O-]",
    "solubility (mole fraction)": 0.0153
  }
]

###

settings: in isobutanol, 330.35 K

[
  {
    "substance smiles": "Cc1cccc(C(=O)O)c1[N+](=O)[O-]",
    "solubility (mole fraction)": 0.0425
  }
]

###

conditions: in sec-butanol, 315.25 K
measurement name: solubility (mole fraction)

[
  {
    "substance smiles": "Cc1cccc(C(=O)O)c1[N+](=O)[O-]",
    "test result": 0.0373
  }
]

###

conditions: in isobutanol, 319.55 K
measurement name: solubility (mole fraction)

[
  {
    "substance smiles": "Cc1cc(C(=O)O)ccc1[N+](=O)[O-]",
    "test result": 0.0158
  }
]

###

settings: in n-butanol, 305.15 K
measurement name: solubility (mole fraction)

[
  {
    "substance smiles": "Cc1cc(C(=O)O)ccc1[N+](=O)[O-]",
    "test result": 0.013
  }
]

###

conditions: in n-butanol, 302.85 K

[
  {
    "substance smiles": "Cc1ccc([N+](=O)[O-])c(C(=O)O)c1",
    "solubility (mole fraction)": 0.218
  }
]

###

conditions: in sec-butanol, 328.85 K

[
  {
    "substance smiles": "Cc1cccc(C(=O)O)c1[N+](=O)[O-]",
    "solubility (mole fraction)": 0.0622
  }
]

###

conditions: in isobutanol, 333.65 K
measurement name: solubility (mole fraction)

[
  {
    "substance smiles": "Cc1ccc([N+](=O)[O-])c(C(=O)O)c1",
    "measurement name": "solubility (mole fraction)",
    "test result": 0.243
  }
]

###

conditions: in isobutanol, 322.95 K
measurement name: solubility (mole fraction)

[
  {
    "substance smiles": "Cc1ccc([N+](=O)[O-])c(C(=O)O)c1",
    "test result": 0.209
  }
]

###

settings: in tert-butanol, 335.95 K

[
  {
    "substance smiles": "Cc1cccc(C(=O)O)c1[N+](=O)[O-]",
    "solubility (mole fraction)": 0.0999
  }
]

###

conditions: in n-butanol, 307.55 K
measurement name: solubility (mole fraction)

[
  {
    "substance smiles": "Cc1cccc(C(=O)O)c1[N+](=O)[O-]",
    "test result": 0.0228
  }
]

###

conditions: in sec-butanol, 297.65 K
measurement name: solubility (mole fraction)

[
  {
    "substance smiles": "Cc1ccc([N+](=O)[O-])c(C(=O)O)c1",
    "test result": 0.225
  }
]

###

conditions: in tert-butanol, 318.15 K
measurement name: solubility (mole fraction)

[
  {
    "substance smiles": "Cc1ccc([N+](=O)[O-])c(C(=O)O)c1",
    "measurement name": "solubility (mole fraction)",
    "test result": 0.341
  }
]

###

conditions: in tert-butanol, 314.95 K

[
  {
    "substance smiles": "Cc1cc(C(=O)O)ccc1[N+](=O)[O-]",
    "solubility (mole fraction)": 0.0321
  }
]

###

settings: in n-butanol, 292.15 K

[
  {
    "substance smiles": "Cc1ccc([N+](=O)[O-])c(C(=O)O)c1",
    "solubility (mole fraction)": 0.172
  }
]

###

conditions: in isobutanol, 326.25 K

[
  {
    "substance smiles": "Cc1cccc(C(=O)O)c1[N+](=O)[O-]",
    "solubility (mole fraction)": 0.0367
  }
]

###

conditions: in tert-butanol, 301.55 K
measurement name: solubility (mole fraction)

[
  {
    "substance smiles": "Cc1ccc([N+](=O)[O-])c(C(=O)O)c1",
    "test result": 0.255
  }
]

###

conditions: in n-butanol, 339.95 K
measurement name: solubility (mole fraction)

[
  {
    "substance smiles": "Cc1cccc(C(=O)O)c1[N+](=O)[O-]",
    "measurement name": "solubility (mole fraction)",
    "test result": 0.0676
  }
]

###

conditions: in n-butanol, 304.15 K

[
  {
    "substance smiles": "Cc1cccc(C(=O)O)c1[N+](=O)[O-]",
    "solubility (mole fraction)": 0.0199
  }
]

###

details: in n-butanol, 343.45 K

[
  {
    "substance smiles": "Cc1cccc(C(=O)O)c1[N+](=O)[O-]",
    "solubility (mole fraction)": 0.0742
  }
]

###

settings: in n-butanol, 332.25 K

[
  {
    "substance smiles": "Cc1cccc(C(=O)O)c1[N+](=O)[O-]",
    "solubility (mole fraction)": 0.0529
  }
]

###

conditions: in n-butanol, 327.95 K

[
  {
    "substance smiles": "Cc1cc(C(=O)O)ccc1[N+](=O)[O-]",
    "solubility (mole fraction)": 0.03
  }
]

###

conditions: in isobutanol, 303.45 K
measurement name: solubility (mole fraction)

[
  {
    "substance smiles": "Cc1cccc(C(=O)O)c1[N+](=O)[O-]",
    "test result": 0.0138
  }
]

###

conditions: in sec-butanol, 333.35 K
measurement name: solubility (mole fraction)

[
  {
    "substance smiles": "Cc1cccc(C(=O)O)c1[N+](=O)[O-]",
    "test result": 0.0718
  }
]

###

settings: in sec-butanol, 315.35 K

[
  {
    "substance smiles": "Cc1ccc([N+](=O)[O-])c(C(=O)O)c1",
    "solubility (mole fraction)": 0.305
  }
]

###

settings: in tert-butanol, 336.55 K

[
  {
    "substance smiles": "Cc1ccc([N+](=O)[O-])c(C(=O)O)c1",
    "solubility (mole fraction)": 0.445
  }
]

###

settings: in isobutanol, 306.95 K

[
  {
    "substance smiles": "Cc1cc(C(=O)O)ccc1[N+](=O)[O-]",
    "solubility (mole fraction)": 0.009
  }
]

###

conditions: in sec-butanol, 323.95 K

[
  {
    "substance smiles": "Cc1cccc(C(=O)O)c1[N+](=O)[O-]",
    "solubility (mole fraction)": 0.053
  }
]

###

settings: in isobutanol, 346.65 K
measurement name: solubility (mole fraction)

[
  {
    "substance smiles": "Cc1cc(C(=O)O)ccc1[N+](=O)[O-]",
    "measurement name": "solubility (mole fraction)",
    "test result": 0.0457
  }
]

###

settings: in tert-butanol, 333.05 K

[
  {
    "substance smiles": "Cc1cc(C(=O)O)ccc1[N+](=O)[O-]",
    "solubility (mole fraction)": 0.0627
  }
]

###

settings: in n-butanol, 294.15 K

[
  {
    "substance smiles": "Cc1ccc([N+](=O)[O-])c(C(=O)O)c1",
    "solubility (mole fraction)": 0.183
  }
]

###

details: in isobutanol, 328.15 K

[
  {
    "substance smiles": "Cc1ccc([N+](=O)[O-])c(C(=O)O)c1",
    "solubility (mole fraction)": 0.227
  }
]

###

conditions: in isobutanol, 315.75 K
measurement name: solubility (mole fraction)

[
  {
    "substance smiles": "Cc1cc(C(=O)O)ccc1[N+](=O)[O-]",
    "test result": 0.0132
  }
]
